# Tested on: LXRb homodimer (NR concentration 270 nM)
# protocol: PBM binding z-score (relative to random genomic background probes); higher = stronger binding; sequences stand for … in GC…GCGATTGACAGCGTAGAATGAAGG
Collected PBM binding z-score values appear next to each entry.

- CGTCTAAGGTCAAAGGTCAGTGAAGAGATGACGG: 2.67
- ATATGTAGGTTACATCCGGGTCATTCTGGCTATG: 0.83
- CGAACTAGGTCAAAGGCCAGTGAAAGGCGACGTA: -0.821

Query: PBM binding z-score; subject: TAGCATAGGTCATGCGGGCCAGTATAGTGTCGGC
-0.127

Quick one: PBM binding z-score of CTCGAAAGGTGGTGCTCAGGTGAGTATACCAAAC ?
-0.573

For the sequence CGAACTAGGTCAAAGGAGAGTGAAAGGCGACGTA , what PBM binding z-score is on record?
-0.486
